src = the supplement of paper PMC12494721

Test system: Ruminococcus gnavus DSM 108212
Method Description: fold change of Tryptamine concentration vs plate DMSO controls (fold change (ratio)); higher = more amine produced, active = hit call of the paper (significant change in both replicates, either direction)
Run Conditions: incubation time: 27 h, anaerobic, 37 °C
Where a name gives a salt, the structure may show the parent alone.
Quantity: fold change of Tryptamine concentration
Give your answer as a number; write no unit.

>>> observed_measurement("CN[C@@H]1[C@@H](O)[C@@H](O[C@@H]2[C@@H](O)[C@H](O[C@H]3OC(CN)=CC[C@H]3N)[C@@H](N)C[C@H]2N)OC[C@]1(C)O [Sisomicin sulfate] (20 µM)")
1.02

Asked: System Ruminococcus gnavus DSM 108212. Read-out fold change of Tryptamine concentration. Item CNCCC(Oc1ccc(C(F)(F)F)cc1)c1ccccc1 (centres undefined) [Fluoxetine hydrochloride] (20 µM) . Report value.
Given back: 0.882

Asked: System Ruminococcus gnavus DSM 108212. Read-out fold change of Tryptamine concentration. Item NCCCCCC(=O)O [Aminocaproic acid] (20 µM) . Report value.
Given back: 1.04

Asked: System Ruminococcus gnavus DSM 108212. Read-out fold change of Tryptamine concentration. Item Clc1ccc(C(Cn2ccnc2)OCc2ccsc2Cl)c(Cl)c1 (centres undefined) [Tioconazole] (20 µM) . Report value.
Given back: 0.26
